test: TEAD-YAP interaction inhibition, primary screen, TEAD-YAP interaction inhibitor project, luminescence, HEK-TIYL cells (AID 1259422); conditions: TEAD-Gal4/YAP UAS-luciferase luminescence, at 9.12 µM;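 further: 0% = median of test compound wells and 100% = reference inhibitor wells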
The whole screen tested about 640,000 compounds, of which about 9,300 (1.5%) were called active. No stated cut-off is given here; in the data, active means inhibition above about 32%; inactive means the rest. The full list was thinned out, with actives kept by preference.
Response enum: TRUE = active, FALSE = inactive

Here's what some known entries look like.
COc1ccc(/C=N/NC(=O)COc2ccc(Cl)cc2Br)cc1OC	FALSE
O=C(Cn1c(=O)oc2cc(S(=O)(=O)NC3CCCC3)ccc21)N1CCCCCC1	FALSE
CN(C(=O)n1nnc2ccccc21)c1ccccc1	TRUE

Outcome logged for Cc1nn(C(=O)N(C)c2ccccc2)c(C)c1Br in this assay:
FALSE

Test call for this compound, please: COc1ccc(N=C2SC(C(=O)Nc3ccc(C)cc3C)CC(=O)N2CCc2ccc(OC)c(OC)c2)cc1 (configuration not stated)
FALSE

Record lookup: outcome of this test for CC(C)(C)NC(=O)c1cnn2c(C(F)(F)F)cc(-c3ccc(F)cc3)nc12 ?
FALSE

What did this assay record as the result for c1ccc(Oc2ccc(-c3cnn4c(NCCCN5CCOCC5)ccnc34)cc2)cc1 ?
TRUE

For this compound, state the assay outcome: COc1ccc(-n2nc3cc(C)c(NC(=O)c4ccccc4I)cc3n2)cc1
FALSE

Would you mind telling me which call this test gave CCCOc1ccc2cc(-c3csc(N)n3)c(=O)oc2c1 ?
TRUE

Status in this test for Cc1cccc2c1[nH]c1nc(N/N=C\c3ccc(O)cc3)nnc12 ?
FALSE

* * *

test: TEAD-YAP interaction inhibition, primary screen, TEAD-YAP interaction inhibitor project, luminescence, HEK-TIYL cells (AID 1259422); conditions: TEAD-Gal4/YAP UAS-luciferase luminescence, at 9.12 µM;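 further: 0% = median of test compound wells and 100% = reference inhibitor wells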
The campaign covered roughly 640,000 compounds. About 9,300 (1.5%) were called active. Rule as the data show it: active = inhibition above about 32%; inactive = the rest. Only a selection was taken, and actives are over-represented in it overall.
The categories you may choose from are active, inactive

Here's what some known entries look like.
COc1cccc(NC(=O)CSc2nnc(-c3ccc(F)cc3)c(-c3ccc(F)cc3)n2)c1	inactive
CC(=O)c1c(C)[nH]c(C(=O)Nc2ccc(Cl)c(C(F)(F)F)c2)c1C	inactive
CN(C)S(=O)(=O)c1ccc(NC(=O)COC(=O)c2ccc(NC(N)=O)cc2)cc1	inactive

// param item: CCOc1ccc(NC(=O)c2ccc(C#N)cc2F)cc1 ; yields the recorded call
inactive

Outcome logged for CC(C)n1cnc2c(NC3CCN(Cc4ccccc4)CC3)nc(NC3CCN(Cc4ccccc4)CC3)nc21 in this assay:
inactive

Could you please tell me the result logged for Fc1ccc(Nc2nc(NCC3CCCO3)c3ccccc3n2)cc1 (centres undefined) in this assay?
active

Which outcome was entered for the compound CC(C)C(O)c1ccc2c(c1)CN(Cc1cccc(OCCO)c1)CCO2 (centres undefined) in this test?
inactive

What classification did Fc1ccccc1-c1nc(NCC2CCCO2)c2ccccc2n1 (centres undefined) end up with in this test?
inactive

* * *

test: TEAD-YAP interaction inhibition, primary screen, TEAD-YAP interaction inhibitor project, luminescence, HEK-TIYL cells (AID 1259422); conditions: TEAD-Gal4/YAP UAS-luciferase luminescence, at 9.12 µM, stronger effect = higher value;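 further: 0% = median of test compound wells and 100% = reference inhibitor wells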
Out of some 640,000 compounds screened, about 9,300 (1.5%) were called active. The entries come from a sample that favours actives as a whole.
test readout: inhibition

// worked examples, inhibition included
CC(C)n1cnc2c(NCCCN3CCCC3=O)nc(Nc3ccc(-n4ccnc4)cc3)nc21	44.4% (active)
CC(C)n1cnc2c(NCCCN3CCCC3=O)nc(-c3csc4ccccc34)nc21	3.47% (inactive)
c1cc(Nc2nc(Nc3ccc(N4CCOCC4)cc3)c3ncn(-c4ccsc4)c3n2)ccn1	-4.11% (inactive)
O=C(NC1CCN(Cc2ccccc2)CC1)c1ccc(-c2ccccc2)s1	-22.3% (inactive)
COc1ccc(-c2cc(NC3CC3)nc(N)n2)cn1	-43.5% (inactive)
c1cnc(Nc2nc(Nc3ccc(N4CCOCC4)cc3)c3ncn(-c4ccsc4)c3n2)nc1	51.1% (active)
c1ccc(-n2cnc3c(NCCN4CCOCC4)nc(Nc4ccc(-n5ccnc5)cc4)nc32)cc1	61.3% (active)
OCCNc1nc(Nc2ccc(N3CCOCC3)cc2)nc2c1ncn2-c1ccccc1	28.7% (inactive)

Each of the following entries comes with a recorded value; kindly state inhibition for each.
1. OCCNc1nc(N2CCCC2CO)nc2c1ncn2-c1ccsc1 (stereo not given)
2. O=C1CCCN1CCCNc1nc(Nc2ccc(-n3ccnc3)cc2)nc2c1ncn2CCN1CCCC1=O

1. 14.6% (inactive)
2. 4.85% (inactive)

* * *

test: TEAD-YAP interaction inhibition, primary screen, TEAD-YAP interaction inhibitor project, luminescence, HEK-TIYL cells (AID 1259422); settings: TEAD-Gal4/YAP UAS-luciferase luminescence, at 9.12 µM;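 further: 0% = median of test compound wells and 100% = reference inhibitor wells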
Hit rate of the full screen: of about 640,000 compounds, about 9,300 (1.5%) were called active. Rule as the data show it: active = inhibition above about 32%; inactive = the rest. Many of the other results were omitted from the sample, so actives are more common in it than they were.
Parameter call: string, one of active, inactive

O=[N+]([O-])c1cccc(S(=O)(=O)NNc2ccccc2)c1	inactive
COc1ccc(OC)c(C(=O)c2coc3ccc(OC)cc23)c1	inactive
CCCS(=O)(=O)N1CCCc2ccc(NC(=O)CC(C)C)cc21	inactive
CCCN1CC=C2C(C1)C(c1cccc(C(F)(F)F)c1)C(C#N)=C(N)C2(C#N)C#N (stereo unspecified)	inactive
Cc1ccc2c(c1)-c1c(cnn1CC(=O)NCCCN1CCCCCC1)CO2	inactive

Call for entry Cc1cc(=O)oc2c(OC(=O)c3cc4ccccc4o3)c(OC(=O)c3cc4ccccc4o3)ccc12 :
inactive

Can you look up the reported call for Clc1ccc(Cn2ncc3c(NCc4cccnc4)ncnc32)cc1 for me?
inactive

* * *

test: TEAD-YAP interaction inhibition, primary screen, TEAD-YAP interaction inhibitor project, luminescence, HEK-TIYL cells (AID 1259422); conditions: TEAD-Gal4/YAP UAS-luciferase luminescence, at 9.12 µM;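 further: 0% = median of test compound wells and 100% = reference inhibitor wells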
The whole screen tested about 640,000 compounds, of which about 9,300 (1.5%) were called active. Cut-off read from the data, not from the text of the source: active = inhibition above about 32%; inactive = the rest. The sample as a whole holds a higher share of actives than the screen did.
Please answer using one outcome listed in TRUE for active, FALSE for inactive

Given Clc1cc2nc3[nH]c4ccccc4c3nc2cc1Cl , state the outcome it received in this test.
FALSE

* * *

test: TEAD-YAP interaction inhibition, primary screen, TEAD-YAP interaction inhibitor project, luminescence, HEK-TIYL cells (AID 1259422); conditions: TEAD-Gal4/YAP UAS-luciferase luminescence, at 9.12 µM, stronger effect = higher value;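 further: 0% = median of test compound wells and 100% = reference inhibitor wells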
About 9,300 (1.5%) of roughly 640,000 compounds were called active. The sample holds actives, similar compounds and a random draw of the others, so the mix is not that of the screen.
test readout: inhibition (%)
Give bare numbers, in %.

Example results:
N#Cc1c(NC(=O)c2cc3ccccc3c(=O)o2)sc2c1CCCCC2	4.91
NC(=O)c1c(NC(=O)c2cc(=O)c3ccccc3o2)sc2c1CCCCC2	32.9
O=C(Nc1cccc2ccccc12)c1nc2c(nnn2Cc2ccc(F)cc2)c(=O)[nH]1	-2.87

// each listed compound needs a value for inhibition
1. OCCC1CCCCN1c1ccnc2c(-c3ccc(F)c(Cl)c3)cnn12 (stereo unspecified)
2. C/C(=N/NC(=O)c1ccccn1)c1ccccc1
3. OC[C@@H]1CCCN1c1ccnc2c(-c3ccc4c(c3)OCO4)cnn12
4. CCOC(=O)Cn1c(=O)oc2cc(S(=O)(=O)N3CCN(CC)CC3)ccc21
5. CCn1c(=O)cc(SCC(=O)Nc2nc(C)cs2)c2ccccc21
6. CN(C)CCNc1ccnc2c(-c3ccc(F)c(Cl)c3)cnn12

41.4
14.7
55.2
-3.33
-2.9
-31.8

I have 2 compounds here; please give me inhibition for each one.
1. CC(C)(C)c1ccc(C(=O)NNC(=O)c2ccccn2)cc1
2. CC(C)(C)c1ccc(C(=O)NNC(=O)C(=O)NCc2ccccc2)cc1

41.6
-5.07

* * *

assay: TEAD-YAP interaction inhibition, primary screen, TEAD-YAP interaction inhibitor project, luminescence, HEK-TIYL cells (AID 1259422); conditions: TEAD-Gal4/YAP UAS-luciferase luminescence, at 9.12 µM;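 further: 0% = median of test compound wells and 100% = reference inhibitor wells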
Among all 640,000 compounds or so, about 9,300 (1.5%) were called active. Cut-off read from the data, not from the text of the source: active = inhibition above about 32%; inactive = the rest. What follows is part of a selection rich in actives, with near analogues and random picks from the rest.
Choose one outcome from this list and give only that: 1.0 for active, 0.0 for inactive

Solved entries:
CC(=O)Oc1ccc(/C=C2\N=C(c3ccccc3F)OC2=O)cc1	0.0
COc1ccc(S(=O)(=O)N2CCCc3ccccc32)cc1Cl	1.0
CS(=O)(=O)N(CC(O)Cn1c2ccccc2c2ccccc21)c1ccccc1I (stereo unspecified)	0.0
NS(=O)(=O)c1ccc(CCNC(=S)Nc2ccccc2F)cc1	0.0
Cn1c(=O)c(=O)n(C)c2cc(S(=O)(=O)N3CCCc4ccccc43)ccc21	0.0
COc1ccc(C(=O)O)cc1NC(=S)NC(=O)c1ccccc1	0.0

What did this assay record as the result for CCOC(=O)C1=C(NC(=S)NC(=O)c2ccccc2)c2ccccc2CC1(CC)CC ?
1.0

// param item: COc1ccc(S(=O)(=O)N2CCc3ccccc3C2)cc1Cl ; yields the recorded call
0.0

Dear colleague, could you share the recorded outcome for COc1ccccc1N1C(=O)C2C(C(C)=O)=NN(c3cccc(Cl)c3)C2C1=O (stereo unspecified) when you have a moment?
0.0

Answer briefly: the call reported for O=S(=O)(c1ccc2c(c1)OCCCO2)N1CCCc2ccccc21 in this assay.
1.0

# fetch the recorded call for CCOC(=O)c1c(NC(=S)NC(=O)c2ccccc2)sc2c1CC(C)(CC)OC2 (stereo unspecified) here
0.0
